Values from ChEMBL document CHEMBL1122147

Give measured Ka for each item. Keep answers brief.
subject_of_test: Estrogen receptor (Mus musculus) (UniProt O08537+P19785)
Sequence (O08537 whole entry, looked up): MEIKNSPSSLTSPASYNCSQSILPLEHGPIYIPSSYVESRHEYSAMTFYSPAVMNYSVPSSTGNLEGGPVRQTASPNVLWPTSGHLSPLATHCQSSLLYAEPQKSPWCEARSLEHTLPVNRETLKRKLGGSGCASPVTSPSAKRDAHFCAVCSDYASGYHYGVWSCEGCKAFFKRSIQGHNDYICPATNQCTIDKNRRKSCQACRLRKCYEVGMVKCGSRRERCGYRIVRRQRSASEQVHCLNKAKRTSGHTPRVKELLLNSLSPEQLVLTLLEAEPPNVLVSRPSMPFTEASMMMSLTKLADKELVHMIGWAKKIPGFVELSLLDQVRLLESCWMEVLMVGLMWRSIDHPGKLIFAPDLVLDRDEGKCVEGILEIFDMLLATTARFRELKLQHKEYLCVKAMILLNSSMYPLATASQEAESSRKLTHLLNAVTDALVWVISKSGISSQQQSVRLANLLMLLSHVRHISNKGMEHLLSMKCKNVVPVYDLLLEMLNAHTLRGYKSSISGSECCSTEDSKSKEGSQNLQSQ
Sequence (P19785 whole entry, looked up): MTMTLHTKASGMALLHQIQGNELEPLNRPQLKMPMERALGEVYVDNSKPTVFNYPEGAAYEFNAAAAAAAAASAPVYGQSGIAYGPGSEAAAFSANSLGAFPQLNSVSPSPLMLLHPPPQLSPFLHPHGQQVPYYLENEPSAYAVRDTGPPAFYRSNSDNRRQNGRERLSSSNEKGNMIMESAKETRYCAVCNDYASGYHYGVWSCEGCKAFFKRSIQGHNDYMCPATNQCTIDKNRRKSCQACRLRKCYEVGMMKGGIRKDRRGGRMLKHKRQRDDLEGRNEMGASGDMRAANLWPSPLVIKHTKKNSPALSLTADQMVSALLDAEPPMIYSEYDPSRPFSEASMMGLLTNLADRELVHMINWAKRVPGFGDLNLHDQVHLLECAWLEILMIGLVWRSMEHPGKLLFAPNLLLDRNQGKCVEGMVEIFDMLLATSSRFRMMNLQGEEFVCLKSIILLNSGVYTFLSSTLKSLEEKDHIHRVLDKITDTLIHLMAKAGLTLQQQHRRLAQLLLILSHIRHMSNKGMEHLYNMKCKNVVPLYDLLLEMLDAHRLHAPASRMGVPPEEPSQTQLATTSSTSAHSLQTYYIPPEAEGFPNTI
measurement_protocol: Binding affinity for murine Estrogen receptor
Format: protein assay

Exam item: Report Ka for CCCNC(c1ccc(O)cc1)C(NCCC)c1ccc(O)cc1 (stereo not drawn) please.
Marked response: 1.1e+06 M⁻¹

Exam item: Report Ka for CCCCCCNC(c1ccc(O)cc1)C(NCCCCCC)c1ccc(O)cc1.Cl.Cl (stereo not drawn) please.
Marked response: 320000 M⁻¹

Exam item: Report Ka for CCNC(c1ccc(O)cc1)C(NCC)c1ccc(O)cc1 (stereo not drawn) please.
Marked response: < 10000 M⁻¹

Exam item: Report Ka for CCCCNC(c1cccc(O)c1)C(NCCCC)c1cccc(O)c1 (stereo not drawn) please.
Marked response: < 10000 M⁻¹

Exam item: Report Ka for CCCCNC(c1ccc(O)cc1)C(NCCCC)c1ccc(O)cc1 (racemic) please.
Marked response: 3.6e+06 M⁻¹

Exam item: Report Ka for CCCCCNC(c1ccc(O)cc1)C(NCCCCC)c1ccc(O)cc1 (stereo not drawn) please.
Marked response: 2.2e+06 M⁻¹

Exam item: Report Ka for CC(C)NC(c1ccc(O)cc1)C(NC(C)C)c1ccc(O)cc1 (stereo not drawn) please.
Marked response: 140000 M⁻¹
